Reported IC50 values for the following molecules.
# System: HCT116
# Method: Test A: Cytostatic Cell Culture Assay (GI50), HCT116
# Assay type: cell-based
# Recorded conditions: Homo sapiens, HCT-116, 120 h; HCT116 cells, 5 days, SRB; read-out: G150 Colon HCT116
Property name: IC50 (nM)

INSERT INTO measurements (smiles_record, units, prefix_operator, measured_value) VALUES
  ('OC[C@H]1O[C@@H](n2ccc3c(-c4ccoc4)ncnc32)[C@H](O)[C@@H]1O', 'nM', '=', 92),
  ('OC[C@H]1O[C@@H](n2cc(F)c3c(-c4ccco4)ncnc32)[C@H](O)[C@@H]1O', 'nM', '=', 39),
  ('OC[C@H]1O[C@@H](n2ccc3c(-c4nccs4)ncnc32)[C@H](O)[C@@H]1O', 'nM', '=', 484),
  ('OC[C@H]1O[C@@H](n2cc(Cl)c3c(-c4ccco4)ncnc32)[C@H](O)[C@@H]1O', 'nM', '>', 20000);

###

# Tested on: A549
# Method: Test A: Cytostatic Cell Culture Assay (GI50), A549
# Assay type: cell-based
# Recorded conditions: Homo sapiens, 120 h; A549 cells, 5 days, SRB; read-out: G150 Lung A549
Property name: IC50 (nM)

INSERT INTO results (smiles_record, prefix_operator, measured_value) VALUES
  ('OC[C@H]1O[C@@H](n2ccc3c(-c4ccoc4)ncnc32)[C@H](O)[C@@H]1O', '=', 73),
  ('OC[C@H]1O[C@@H](n2ccc3c(-c4cn[nH]c4)ncnc32)[C@H](O)[C@@H]1O', '=', 6230),
  ('OC[C@H]1O[C@@H](n2cc(F)c3c(-c4c[nH]cn4)ncnc32)[C@H](O)[C@@H]1O', '>', 20000),
  ('OC[C@H]1O[C@@H](n2ccc3c(-c4ccsc4)ncnc32)[C@H](O)[C@@H]1O', '=', 627),
  ('OC[C@H]1O[C@@H](n2ccc3c(-c4cc[nH]c4)ncnc32)[C@H](O)[C@@H]1O', '=', 365),
  ('OC[C@H]1O[C@@H](n2ccc3c(-c4ccco4)ncnc32)[C@H](O)[C@@H]1O', '=', 88),
  ('OC[C@H]1O[C@@H](n2cc(F)c3c(-c4ccco4)ncnc32)[C@H](O)[C@@H]1O', '=', 109),
  ('OC[C@H]1O[C@@H](n2ccc3c(-c4cccs4)ncnc32)[C@H](O)[C@@H]1O', '=', 45);

###

# Tested on: HCT116
# Method: Test A: Cytostatic Cell Culture Assay (GI50), HCT116
# Format: cell-based
# Recorded conditions: Homo sapiens, HCT-116, 120 h; HCT116 cells, 5 days, SRB; read-out: G150 Colon HCT116
# Description: Test A: Cytostatic Cell Culture Assay (GI50) This assay is based on quantification of cell counts by a calorimetric detection of the cell associated proteins. The assay relies on the ability of sulforhodamine B (SRB) to bind to protein components of cells that have been fixed to tissue-culture plates by trichloroacetic acid (TCA). […] • 1. […] Measure the OD at 500 nm in a microplate reader. • 13. […]
Property name: IC50 (µM)

INSERT INTO assay_data (smiles_record, prefix_operator, measured_value) VALUES
  ('OC[C@H]1O[C@@H](n2ccc3c(-c4ccn[nH]4)ncnc32)[C@H](O)[C@@H]1O', '=', 7.31),
  ('OC[C@H]1O[C@@H](n2ccc3c(-c4cccnc4)ncnc32)[C@H](O)[C@@H]1O', '>', 20),
  ('OC[C@H]1O[C@@H](n2cc(F)c3c(-c4nccs4)ncnc32)[C@H](O)[C@@H]1O', '=', 1.27),
  ('OCc1ncnc2c1ccn2[C@@H]1O[C@H](CO)[C@@H](O)[C@H]1O', '=', 0.447),
  ('OC[C@H]1O[C@@H](n2ccc3c(-c4cn[nH]c4)ncnc32)[C@H](O)[C@@H]1O', '=', 5.69),
  ('OC[C@H]1O[C@@H](n2ccc3c(-c4ccc[nH]4)ncnc32)[C@H](O)[C@@H]1O', '>', 20),
  ('OC[C@H]1O[C@@H](n2ccc3c(Cc4ccccc4)ncnc32)[C@H](O)[C@@H]1O', '>', 20),
  ('OC[C@H]1O[C@@H](n2cc(F)c3c(-c4ccoc4)ncnc32)[C@H](O)[C@@H]1O', '=', 0.018);

###

# System: NCIH23
# Method: Test A: Cytostatic Cell Culture Assay (GI50), NCIH23
# Format: cell-based
# Recorded conditions: Homo sapiens, NCI-H23, 120 h; NCIH23 cells, 5 days, SRB; read-out: G150 Lung NCIH23
Property name: IC50

INSERT INTO results (smiles_record, measured_value) VALUES
  ('OC[C@H]1O[C@@H](n2ccc3c(-c4ccc[nH]4)ncnc32)[C@H](O)[C@@H]1O', '2.5 µM'),
  ('OC[C@H]1O[C@@H](n2ccc3c(-c4cccs4)ncnc32)[C@H](O)[C@@H]1O', '4.1 µM'),
  ('OC[C@H]1O[C@@H](n2ccc3c(-c4ccn[nH]4)ncnc32)[C@H](O)[C@@H]1O', '3.23 µM'),
  ('OC[C@H]1O[C@@H](n2ccc3c(-c4ccco4)ncnc32)[C@H](O)[C@@H]1O', '4.2 µM'),
  ('OC[C@H]1O[C@@H](n2cc(F)c3c(-c4cccs4)ncnc32)[C@H](O)[C@@H]1O', '4.7 µM'),
  ('OC[C@H]1O[C@@H](n2cc(F)c3c(-c4nccs4)ncnc32)[C@H](O)[C@@H]1O', '4.98 µM'),
  ('OC[C@H]1O[C@@H](n2ccc3c(-c4c[nH]cn4)ncnc32)[C@H](O)[C@@H]1O', '2.49 µM'),
  ('OC[C@H]1O[C@@H](n2cc(F)c3c(-c4ccc[nH]4)ncnc32)[C@H](O)[C@@H]1O', '2.61 µM');

###

# System: A549
# Method: Test A: Cytostatic Cell Culture Assay (GI50), A549
# Type: cell-based
# Recorded conditions: Homo sapiens, 120 h; A549 cells, 5 days, SRB; read-out: G150 Lung A549
Reported IC50 values for the following compounds.
Property name: IC50

INSERT INTO measurements (smiles_record, system_name, measured_value) VALUES
  ('OCc1ncnc2c1ccn2[C@@H]1O[C@H](CO)[C@@H](O)[C@H]1O', 'A549', '0.252 µM'),
  ('COc1ccc(-c2ncnc3c2ccn3[C@@H]2O[C@H](CO)[C@@H](O)[C@H]2O)cc1', 'A549', '> 20 µM'),
  ('OC[C@H]1O[C@@H](n2cc(F)c3c(-c4ccccc4)ncnc32)[C@H](O)[C@@H]1O', 'A549', '12.9 µM'),
  ('OC[C@H]1O[C@@H](n2cc(F)c3c(-c4cccs4)ncnc32)[C@H](O)[C@@H]1O', 'A549', '0.061 µM'),
  ('OC[C@H]1O[C@@H](n2ccc3c(-c4cccnc4)ncnc32)[C@H](O)[C@@H]1O', 'A549', '> 20 µM'),
  ('OC[C@H]1O[C@@H](n2cc(F)c3c(-c4cc[nH]c4)ncnc32)[C@H](O)[C@@H]1O', 'A549', '0.126 µM'),
  ('OC[C@H]1O[C@@H](n2cc(Cl)c3c(-c4ccccc4)ncnc32)[C@H](O)[C@@H]1O', 'A549', '2.47 µM'),
  ('CCc1ncnc2c1ccn2[C@@H]1O[C@H](CO)[C@@H](O)[C@H]1O', 'A549', '4.4 µM');

###

# Tested on: NCIH23
# Method: Test A: Cytostatic Cell Culture Assay (GI50), NCIH23
# Format: cell-based
# Recorded conditions: Homo sapiens, NCI-H23, 120 h; NCIH23 cells, 5 days, SRB; read-out: G150 Lung NCIH23
pIC50: −log10 of the molar value.
Property name: pIC50

INSERT INTO assay_data (molecule, prefix_operator, measured_value) VALUES
  ('OC[C@H]1O[C@@H](n2cc(F)c3c(-c4cc[nH]c4)ncnc32)[C@H](O)[C@@H]1O [Example 27]', '=', 5.80),
  ('OC[C@H]1O[C@@H](n2ccc3c(-c4cc[nH]c4)ncnc32)[C@H](O)[C@@H]1O [Example 14]', '=', 5.63),
  ('OCc1ncnc2c1ccn2[C@@H]1O[C@H](CO)[C@@H](O)[C@H]1O [Example 11]', '=', 7.55),
  ('OC[C@H]1O[C@@H](n2cc(Cl)c3c(-c4ccccc4)ncnc32)[C@H](O)[C@@H]1O [Example 28]', '=', 5.30),
  ('OC[C@H]1O[C@@H](n2cc(Cl)c3c(-c4ccco4)ncnc32)[C@H](O)[C@@H]1O [Example 29]', '=', 4.88),
  ('OC[C@H]1O[C@@H](n2ccc3c(-c4nccs4)ncnc32)[C@H](O)[C@@H]1O [Example 8]', '=', 5.36),
  ('OC[C@H]1O[C@@H](n2cc(F)c3c(-c4ccoc4)ncnc32)[C@H](O)[C@@H]1O [Example 23]', '=', 5.33),
  ('OC[C@H]1O[C@@H](n2cc(Cl)c3c(-c4ccoc4)ncnc32)[C@H](O)[C@@H]1O [Example 31]', '=', 5.28),
  ('OC[C@H]1O[C@@H](n2cc(Cl)c3c(-c4ccsc4)ncnc32)[C@H](O)[C@@H]1O [Example 32]', '=', 5.34),
  ('OC[C@H]1O[C@@H](n2cc(F)c3c(-c4c[nH]cn4)ncnc32)[C@H](O)[C@@H]1O [Example 26]', '=', 5.12),
  ('OC[C@H]1O[C@@H](n2ccc3c(-c4cccnc4)ncnc32)[C@H](O)[C@@H]1O [Example 10]', '<', 4.70),
  ('OC[C@H]1O[C@@H](n2ccc3c(-c4ccoc4)ncnc32)[C@H](O)[C@@H]1O [Example 12]', '=', 6.16),
  ('OC[C@H]1O[C@@H](n2cc(F)c3c(-c4ccco4)ncnc32)[C@H](O)[C@@H]1O [Example 20]', '=', 5.37),
  ('OC[C@H]1O[C@@H](n2cc(F)c3c(-c4ccsc4)ncnc32)[C@H](O)[C@@H]1O [Example 24]', '=', 5.53),
  ('OC[C@H]1O[C@@H](n2ccc3c(-c4ccsc4)ncnc32)[C@H](O)[C@@H]1O [Example 13]', '=', 5.37),
  ('OC[C@H]1O[C@@H](n2ccc3c(-c4ccc[se]4)ncnc32)[C@H](O)[C@@H]1O [Example 15]', '=', 5.60),
  ('OC[C@H]1O[C@@H](n2cc(Cl)c3c(-c4cccs4)ncnc32)[C@H](O)[C@@H]1O [Example 30]', '=', 5.70),
  ('OC[C@H]1O[C@@H](n2ccc3c(-c4cn[nH]c4)ncnc32)[C@H](O)[C@@H]1O [Example 17]', '=', 5.28);
